Assign half-life to each entry below.
- Protocol Description: Metabolic stability in human liver microsomes by HPLC-MS/MS
- Format: ADME, Microsome
Numeric answer only, unit min assumed.

Task: Which value of half-life has been reported for C[C@H]1c2c(cc(F)c(-c3cccc4cc[nH]c34)c2F)NC(C)(C)[C@@H]1O (racemic) in the records?
Output: 48

Task: Quick one: half-life for C[C@H]1c2c(Cl)c(-c3cccc4cc[nH]c34)cc(F)c2NC(C)(C)[C@@H]1O (racemic) ?
Output: 15

Task: Reported half-life for Cc1cc(-c2cccc3cc[nH]c23)c(Cl)c2c1NC(C)(C)[C@H](O)[C@H]2C (racemic) : what is it?
Output: 4.7

Task: Returns the measured half-life for the input compound. Input: Cc1c(F)c(-c2cccc3cc[nH]c23)cc2c1NC(C)(C)[C@H](O)[C@H]2C (racemic)
Output: 17

Task: What value of half-life has been recorded for this entry: Cc1c(Cl)c(-c2cccc3cc[nH]c23)cc2c1NC(C)(C)[C@H](O)[C@H]2C (racemic)
Output: 21

Task: What value of measured half-life is listed for Cc1cc(-c2cccc3cc[nH]c23)c(C#N)c2c1NC(C)(C)[C@H](O)[C@H]2C (racemic) ?
Output: 13
